Below, each entry is listed with its recorded glycan array binding signal (z-score).
- assay system: GlcNAc(b1-3)Gal(b1-4)GlcNAc(b1-2)Man(a1-3)[GlcNAc(b1-3)Gal(b1-4)GlcNAc(b1-2)Man(a1-6)]Man(b1-4)GlcNAc(b1-4)GlcNAc
- test summary: glycan array binding signal (z-score within array); higher = stronger binding
- assay context: glycan notation: IUPAC condensed, linker removed
Shown is part of a subset that was picked to be rich in the strongest signals.
measurement name: glycan array binding signal (z-score)

>>> meas_value("Aap lectin (Staphylococcus epidermidis) (protein) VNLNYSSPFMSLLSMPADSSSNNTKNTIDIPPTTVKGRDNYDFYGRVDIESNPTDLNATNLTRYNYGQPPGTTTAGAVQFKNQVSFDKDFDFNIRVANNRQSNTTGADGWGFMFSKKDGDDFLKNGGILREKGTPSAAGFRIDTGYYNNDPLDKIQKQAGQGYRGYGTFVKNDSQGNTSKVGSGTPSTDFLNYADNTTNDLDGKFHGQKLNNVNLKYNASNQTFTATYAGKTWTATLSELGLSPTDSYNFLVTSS")
0.543
>>> meas_value("BIp1-His (Cryptococcus neoformans) (protein) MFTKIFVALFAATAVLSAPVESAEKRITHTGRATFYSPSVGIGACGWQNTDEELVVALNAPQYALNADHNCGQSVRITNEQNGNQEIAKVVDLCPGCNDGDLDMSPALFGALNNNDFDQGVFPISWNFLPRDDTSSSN")
-0.301
>>> meas_value("Wzz (Escherichia coli) (protein) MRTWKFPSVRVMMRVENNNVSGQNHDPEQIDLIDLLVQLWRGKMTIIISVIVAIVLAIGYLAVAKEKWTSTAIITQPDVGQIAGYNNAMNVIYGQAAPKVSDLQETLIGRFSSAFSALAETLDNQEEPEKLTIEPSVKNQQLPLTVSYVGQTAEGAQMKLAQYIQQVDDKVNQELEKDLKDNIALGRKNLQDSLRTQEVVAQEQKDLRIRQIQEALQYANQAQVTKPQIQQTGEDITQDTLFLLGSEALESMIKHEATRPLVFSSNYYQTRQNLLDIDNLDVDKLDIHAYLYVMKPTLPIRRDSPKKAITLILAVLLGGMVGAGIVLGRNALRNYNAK")
-0.684
>>> meas_value("LF82 (Escherichia coli) (protein) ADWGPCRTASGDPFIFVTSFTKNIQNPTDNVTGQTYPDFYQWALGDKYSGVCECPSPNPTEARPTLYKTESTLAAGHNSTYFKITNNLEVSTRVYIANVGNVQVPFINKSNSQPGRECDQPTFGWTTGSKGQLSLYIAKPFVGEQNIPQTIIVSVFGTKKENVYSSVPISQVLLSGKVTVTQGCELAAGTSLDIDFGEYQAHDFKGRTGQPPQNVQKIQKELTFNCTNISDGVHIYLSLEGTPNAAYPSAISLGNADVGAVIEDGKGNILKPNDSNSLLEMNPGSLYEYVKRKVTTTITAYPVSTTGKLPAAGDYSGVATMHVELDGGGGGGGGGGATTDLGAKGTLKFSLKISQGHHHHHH")
-0.713
>>> meas_value("RbmA (Vibrio cholerae), A0A2H4NFB8 (protein) MSNFKGSIMNKRHYYLASCLALLFSTASYAEVDCELQPVIEANLSLNQNQLASNGGYISSQLGIRNESCETVKFKYWLSIKGPEGIYFPAKAVVGVDTAQQESDALTDGRMLNVTRGFWVPEYMADGKYTVSLQVVAENGEVFKANQEFVKGGDLNSLPELNGLTIDIKNQFGINSVESTGGFVPFTIDLNNGREGEAKVEFWMTAVGPDGLIIPVHSREKWMIIAGNTFSKVRGINFDKSYPAGEYTINAQVVDIVSGERVEQLMTVVKK")
-0.474
>>> meas_value("Epf (Streptococcus pyogenes) (protein) GDHGPEFNGVMVVKAAEAEELPDDLMNFKGTWEVSADGSSGRFFSKGATDSYVFHLIPAKDVKKPGWREHNEVKDSYIKIDKQSIAARYKTSTTAPYSVAFKVNTKSLIKDHDYKITFEQGQIASGITVDYRIGSAFNKTTDDSFKISDESKYASNVKIEGEEQGFKQREQGDKTISFRTLKEGPMSLVLLSKVEKKPQGDLDVEFKNLKIIDVTNPSQLDKGVAYVGNKNVQLTLKSDDGRTNFEGDEISLFNSRGELLQTVTVTKDQQNPISITLSEDQAKSLKNKEKLKVSIKQKQSKKTSKDFFFEVGIDPKVEAKQKEKLLELDKVKKQIEDSINGDAWLPEKPVDLQGDHGLSAWSHPQFEK")
-0.562
>>> meas_value("HBHA-Rv (Mycobacterium tuberculosum), P0A5P6 (protein) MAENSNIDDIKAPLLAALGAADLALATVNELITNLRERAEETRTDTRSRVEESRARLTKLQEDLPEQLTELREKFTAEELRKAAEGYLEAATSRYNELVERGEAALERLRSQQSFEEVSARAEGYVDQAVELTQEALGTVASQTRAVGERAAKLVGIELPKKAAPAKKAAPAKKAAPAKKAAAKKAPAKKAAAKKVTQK")
-0.423
